# CLint scaled at 5 μM per record follows
# Test description: Compound stability in human liver microsomes
# Type: in vitro ADME
# Condition label: pH 7.4; human liver microsomes; in vivo CLint extrapolated
Unit mL/min/kg implied. Number only.

Use the examples below as a reference point.
COc1ncc(-c2ccc3ncc(C#CC(C)O)n3n2)cc1NS(=O)(=O)c1ccc(F)cc1 (centres unmarked); 12.1
CC#Cc1cnc2ccc(-c3cnc(OC)c(NS(=O)(=O)c4ccc(F)cc4F)c3)cn12; 8.18
C#Cc1cnc2ccc(-c3cnc(OC)c(NS(=O)(=O)c4ccc(F)cc4F)c3)nn12; 7.17
COc1ncc(-c2ccc3ncc(C#CCO)n3c2)cc1NS(=O)(=O)c1ccc(F)cc1F; 3.45

Here is another molecule to look at.
Give its CLint scaled at 5 μM value. Item: COc1ncc(-c2ccc3ncc(C#N)n3c2)cc1NS(=O)(=O)c1ccc(F)cc1F
4.1
